# subject-of-test: human A2a receptor (Homo sapiens, UniProt P29274)
# Construct: purchased Perkin-Elmer RBHA2AM400UA; host or cells: HEK293 cells, used as a membrane preparation
# Sequence (P29274 whole entry): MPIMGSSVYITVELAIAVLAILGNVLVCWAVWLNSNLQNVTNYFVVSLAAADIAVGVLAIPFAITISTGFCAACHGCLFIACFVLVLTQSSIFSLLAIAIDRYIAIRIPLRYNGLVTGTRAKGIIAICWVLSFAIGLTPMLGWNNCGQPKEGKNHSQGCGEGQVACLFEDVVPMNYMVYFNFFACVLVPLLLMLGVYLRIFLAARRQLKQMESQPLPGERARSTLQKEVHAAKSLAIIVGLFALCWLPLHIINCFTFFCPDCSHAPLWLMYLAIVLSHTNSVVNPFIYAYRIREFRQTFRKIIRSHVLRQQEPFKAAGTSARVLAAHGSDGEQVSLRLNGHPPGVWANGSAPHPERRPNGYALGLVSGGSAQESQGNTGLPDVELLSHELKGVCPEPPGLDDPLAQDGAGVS
# test-protocol: A2a receptor competition binding assay (Scintillation Proximity)
# reported-conditions: membranes from HEK293 cells expressing human A2a receptor; 0.5 nM tritiated ligand; Cheng-Prusoff; read-out: A2a Ki
readout-name: pKi
Just the number, please; pKi means minus log10 of the concentration in mol/L.

Worked examples, 5 molecules total:
> print(dat)
                               entry.smiles                           subject.of.test  readout.name  value
1  Nc1nc2c(F)cccc2c2nc(CN3Cc4ccc(F)cc4C3)cn12  human A2a receptor (Homo sapiens, UniProt P29274)           pKi   7.74
2  COc1cccc2c1nc(N)n1cc(C(=O)N3CCOC[C@H]3C)nc21  human A2a receptor (Homo sapiens, UniProt P29274)           pKi   6.90
3  COc1cccc(C(=O)N2CCC(Cc3cn4c(N)nc5c(F)cccc5c4n3)CC2)n1  human A2a receptor (Homo sapiens, UniProt P29274)           pKi   7.27
4        Nc1nc2c(F)cccc2c2nc(-c3ccccc3)cn12  human A2a receptor (Homo sapiens, UniProt P29274)           pKi   8.15
5  Nc1nc2c(F)cccc2c2nc(CC3CCN(Cc4cccs4)CC3)cn12  human A2a receptor (Homo sapiens, UniProt P29274)           pKi   7.35

# lookup: pKi of COc1cccc2c1nc(N)n1cc(C(=O)N3CC[C@H](F)C3)nc21
8.13

What do you get for Nc1nc2c(F)cccc2c2nc(CC3CCN(C(=O)c4ccccc4)CC3)cn12 ?
7.09

Can you handle COc1cccc2c1nc(N)n1cc(C(=O)N3CCCC(F)(F)CC3)nc21 next?
7.57

Thanks! And Nc1nc2c(F)cccc2c2nc(C(=O)NCc3cccc4cccnc34)cn12 ?
7.89
